target: Arylsulfatase A (Homo sapiens) (UniProt P15289); assay: qHTS screen for enhancers of Arylsulfatase A (ASA1): LOPAC Validation Assay (AID 720538); conditions: ASA enzyme activity, LOPAC qHTS enhancer assay; series mostly up to 57.5 µM
Sequence (P15289 whole entry, looked up): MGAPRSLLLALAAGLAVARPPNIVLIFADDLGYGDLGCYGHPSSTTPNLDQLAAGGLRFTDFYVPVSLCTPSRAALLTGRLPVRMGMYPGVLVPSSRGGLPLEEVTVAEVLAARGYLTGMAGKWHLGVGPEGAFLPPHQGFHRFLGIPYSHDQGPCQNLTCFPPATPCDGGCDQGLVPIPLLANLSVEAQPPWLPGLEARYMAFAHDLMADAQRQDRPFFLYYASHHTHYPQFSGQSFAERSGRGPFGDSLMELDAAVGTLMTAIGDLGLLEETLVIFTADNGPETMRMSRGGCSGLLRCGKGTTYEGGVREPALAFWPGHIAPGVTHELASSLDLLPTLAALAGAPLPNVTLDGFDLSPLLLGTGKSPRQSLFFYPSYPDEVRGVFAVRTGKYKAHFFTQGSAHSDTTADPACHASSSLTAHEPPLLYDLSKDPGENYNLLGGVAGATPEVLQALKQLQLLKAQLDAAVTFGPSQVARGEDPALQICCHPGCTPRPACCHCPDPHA
Inconclusive results are not listed. Active and inactive are the calls of the source. Calls come from the whole dose curve; as a rule, active = well fitted activation curve with a large enough effect; inconclusive = small, poorly fitted or top-dose-only effect; inactive = no such curve, though single readings can be large or run the other way.
// allowed return values: active, inactive

Hi team, can someone confirm the assay call for `CN1[C@@H](CC(=O)c2ccccc2)CCC[C@H]1C[C@H](O)c1ccccc1` ?
inactive

Another compound to check: O=C(O)CNC(=O)C(CS)Cc1ccccc1 (configuration not stated)
inactive

Param item: `C[C@]12C=CC(=O)C=C1CC[C@@H]1C2=CC[C@]2(C)[C@@H](C(=O)CN3CCN(c4cc(N5CCCC5)nc(N5CCCC5)n4)CC3)CC[C@@H]12`
inactive

Now give it for NCC1OC(O[C@H]2[C@H](O)[C@@H](OC3C(O)C(N)CC(N)C3OC3OC(CO)C(O)C(O)C3N)O[C@@H]2CO)C(N)C(O)C1O (some centres not stated) too.
inactive

Continue with `CC(C)COC(=O)OCN1C(=O)CN(CCN2CC(=O)N(COC(=O)OCC(C)C)C(=O)C2)CC1=O`
inactive

The values you see were collected from PubChem BioAssay (NCATS).
